Observed Ki for UniProt:P28223, reported per entry below.
Sequence (P28223 whole entry): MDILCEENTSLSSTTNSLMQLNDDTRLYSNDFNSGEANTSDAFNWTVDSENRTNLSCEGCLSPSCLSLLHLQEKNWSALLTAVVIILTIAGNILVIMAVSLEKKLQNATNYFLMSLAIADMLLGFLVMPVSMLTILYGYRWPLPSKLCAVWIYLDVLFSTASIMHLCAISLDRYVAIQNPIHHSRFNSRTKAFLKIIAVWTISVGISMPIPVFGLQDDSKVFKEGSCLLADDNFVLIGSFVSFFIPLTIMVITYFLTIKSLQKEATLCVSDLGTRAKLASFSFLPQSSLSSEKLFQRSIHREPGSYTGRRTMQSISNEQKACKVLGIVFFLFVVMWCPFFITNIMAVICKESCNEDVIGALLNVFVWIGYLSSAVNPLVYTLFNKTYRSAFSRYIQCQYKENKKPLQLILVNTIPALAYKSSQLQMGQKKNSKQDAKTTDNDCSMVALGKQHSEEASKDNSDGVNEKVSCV
Write the value in nM as a bare number.

Consider the compound shown here: O=c1c(-c2ccccc2)c2n(c(=O)n1CCCCN1CCCC(c3c[nH]c4ccccc34)C1)CCCC2 (stereo not given) What is its recorded Ki? 725

Consider the compound shown here: O=c1c(-c2ccc(F)cc2)c2n(c(=O)n1CCCCN1CCCC(c3c[nH]c4ccc(F)cc34)C1)CCCC2 (stereo not given) What is its recorded Ki? 484

Consider the compound shown here: COc1ccc(-c2c3n(c(=O)n(CCCCN4CCCC(c5c[nH]c6ccc(OC)cc56)C4)c2=O)CCCC3)cc1 (stereo not given) What is its recorded Ki? 1190

Consider the compound shown here: O=c1c(-c2ccc(Cl)cc2)c2n(c(=O)n1CCCCN1CCCC(c3c[nH]c4ccccc34)C1)CCCC2 (stereo not given) What is its recorded Ki? 1490

Consider the compound shown here: O=c1c(-c2ccccc2F)c2n(c(=O)n1CCCCN1CCCC(c3c[nH]c4ccccc34)C1)CCCC2 (stereo not given) What is its recorded Ki? 325
